Measured tissue uptake at 5 min by item
Test: Biodistribution of 99mTc complexes in rats
Assay type: in vivo, Australian Albino Wistar Rats
Details: rat, thyroid, rats, 5 min, read-out: biodistribution thyroid
# value in %ID/g; strip the unit string

Some solved entries appear below for comparison.
O=C(O)CN(CCN(CC(=O)O)CC(=O)Nc1ccc(Cl)cc1O)CC(=O)Nc1ccc(Cl)cc1O; 0.58
O=C(O)CN(CCN(CC(=O)O)CC(=O)Nc1ccccc1O)CC(=O)Nc1ccccc1O; 0.59
CC(C)(C)c1ccc(O)c(NC(=O)CN(CCN(CC(=O)O)CC(=O)Nc2cc(C(C)(C)C)ccc2O)CC(=O)O)c1; 0.89
O=C(O)CN(CCN(CC(=O)O)CC(=O)Nc1cc([N+](=O)[O-])ccc1O)CC(=O)Nc1cc([N+](=O)[O-])ccc1O; 0.7

We next turn to a different compound, shown below.
tissue uptake at 5 min reported for this compound `Nc1ccc(O)c(NC(=O)CN(CCN(CC(=O)O)CC(=O)Nc2cc(N)ccc2O)CC(=O)O)c1` : 1.73

---

Assay: Biodistribution of 99mTc complexes in mice
Assay type: in vivo, Balb/c mice
Details: 3 min
Reported biodistribution stomach is given for each of the following compounds.
Quick note: give the figure in % Injected dose, leave out the unit.

Cc1cc(C)c(O)c(NC(=O)CN(CCN(CC(=O)O)CC(=O)Nc2cc(C)cc(C)c2O)CC(=O)O)c1; 0.43
CC(C)(C)c1ccc(O)c(NC(=O)CN(CCN(CC(=O)O)CC(=O)Nc2cc(C(C)(C)C)ccc2O)CC(=O)O)c1; 0.61

biodistribution stomach for `O=C(O)CN(CCN(CC(=O)O)CC(=O)Nc1ccc(Cl)cc1O)CC(=O)Nc1ccc(Cl)cc1O` is 0.998

Noted for `O=C(O)CN(CCN(CC(=O)O)CC(=O)Nc1ccccc1O)CC(=O)Nc1ccccc1O` : its biodistribution stomach reads 0.98

---

Assay: Biodistribution of 99mTc complexes in rats
Assay type: in vivo, Australian Albino Wistar Rats
Conditions: rat, bone, rats, 3 min, read-out: biodistribution bone
The threshold is inclusive: tissue uptake at 0.05 h of exactly 0.3 %ID/g counts as 1; values below receive -1.

Check out these entries, answers already filled in.
Nc1ccc(O)c(NC(=O)CN(CCN(CC(=O)O)CC(=O)Nc2cc(N)ccc2O)CC(=O)O)c1; 1
CC(C)(C)c1ccc(O)c(NC(=O)CN(CCN(CC(=O)O)CC(=O)Nc2cc(C(C)(C)C)ccc2O)CC(=O)O)c1; 1
O=C(O)CN(CCN(CC(=O)O)CC(=O)Nc1ccc(Cl)cc1O)CC(=O)Nc1ccc(Cl)cc1O; -1

In the following, a different compound is considered.
Threshold query (tissue uptake at 0.05 h >= 0.3 %ID/g) on `O=C(O)CN(CCN(CC(=O)O)CC(=O)Nc1ccccc1O)CC(=O)Nc1ccccc1O` -1

---

Test: Biodistribution of 99mTc complexes in mice
Assay type: in vivo, Balb/c mice
Conditions: 1 min
RESULT_TYPE: biodistribution tail (% Injected dose)
// return numeric value only (unit: % Injected dose, not printed)

CC(C)(C)c1ccc(O)c(NC(=O)CN(CCN(CC(=O)O)CC(=O)Nc2cc(C(C)(C)C)ccc2O)CC(=O)O)c1 [Compound 4]; 4.62
Cc1cc(C)c(O)c(NC(=O)CN(CCN(CC(=O)O)CC(=O)Nc2cc(C)cc(C)c2O)CC(=O)O)c1 [Compound 6]; 8.46
O=C(O)CN(CCN(CC(=O)O)CC(=O)Nc1ccc(Cl)cc1O)CC(=O)Nc1ccc(Cl)cc1O [Compound 2]; 4.05

Would you kindly look at the next entry?
Consider O=C(O)CN(CCN(CC(=O)O)CC(=O)Nc1ccccc1O)CC(=O)Nc1ccccc1O [Compound 1] . Its measured biodistribution tail is 2.42
